The reported measurements were obtained from BigSolDB 2.1.

condition-details: in acetonitrile, 283.15 K
experimental-readout: solubility (mole fraction)
Kindly provide the number alone.

Item under review: "Nc1cc(Cl)ccc1C(=O)O" . Reported solubility (mole fraction)?
0.00169

====

condition-details: in toluene, 303.15 K
experimental-readout: solubility (mole fraction)
Kindly provide the number alone.

Item under review: "Nc1cc(Cl)ccc1C(=O)O" . Reported solubility (mole fraction)?
0.000478

====

condition-details: in acetonitrile, 293.15 K
experimental-readout: solubility (mole fraction)

Item under review: "Nc1cc(Cl)ccc1C(=O)O" . Reported solubility (mole fraction)?
0.00252

====

condition-details: in 1,4-dioxane, 308.15 K
experimental-readout: solubility (mole fraction)
Kindly provide the number alone.

Item under review: "Nc1cc(Cl)ccc1C(=O)O" . Reported solubility (mole fraction)?
0.0375

====

condition-details: in 1,4-dioxane, 310.65 K
experimental-readout: solubility (mole fraction)
Kindly provide the number alone.

Item under review: "Nc1cc(Cl)ccc1C(=O)O" . Reported solubility (mole fraction)?
0.0405

====

condition-details: in NMP, 305.65 K
experimental-readout: solubility (mole fraction)
Kindly provide the number alone.

Item under review: "Nc1cc(Cl)ccc1C(=O)O" . Reported solubility (mole fraction)?
0.0531

====

condition-details: in toluene, 278.15 K
experimental-readout: solubility (mole fraction)
Kindly provide the number alone.

Item under review: "Nc1cc(Cl)ccc1C(=O)O" . Reported solubility (mole fraction)?
0.000136

====

condition-details: in toluene, 285.65 K
experimental-readout: solubility (mole fraction)
Kindly provide the number alone.

Item under review: "Nc1cc(Cl)ccc1C(=O)O" . Reported solubility (mole fraction)?
0.000204

====

condition-details: in acetonitrile, 285.65 K
experimental-readout: solubility (mole fraction)
Kindly provide the number alone.

Item under review: "Nc1cc(Cl)ccc1C(=O)O" . Reported solubility (mole fraction)?
0.00188

====

condition-details: in toluene, 290.65 K
experimental-readout: solubility (mole fraction)
Kindly provide the number alone.

Item under review: "Nc1cc(Cl)ccc1C(=O)O" . Reported solubility (mole fraction)?
0.000266

====

condition-details: in acetonitrile, 290.65 K
experimental-readout: solubility (mole fraction)

Item under review: "Nc1cc(Cl)ccc1C(=O)O" . Reported solubility (mole fraction)?
0.00229

====

condition-details: in ethyl acetate, 283.15 K
experimental-readout: solubility (mole fraction)

Item under review: "Nc1cc(Cl)ccc1C(=O)O" . Reported solubility (mole fraction)?
0.0149

====

condition-details: in acetonitrile, 308.15 K
experimental-readout: solubility (mole fraction)

Item under review: "Nc1cc(Cl)ccc1C(=O)O" . Reported solubility (mole fraction)?
0.00431

====

condition-details: in NMP, 278.15 K
experimental-readout: solubility (mole fraction)
Kindly provide the number alone.

Item under review: "Nc1cc(Cl)ccc1C(=O)O" . Reported solubility (mole fraction)?
0.0323

====

condition-details: in ethanol, 283.15 K
experimental-readout: solubility (mole fraction)

Item under review: "Nc1cc(Cl)ccc1C(=O)O" . Reported solubility (mole fraction)?
0.0118

====

condition-details: in NMP, 283.15 K
experimental-readout: solubility (mole fraction)
Kindly provide the number alone.

Item under review: "Nc1cc(Cl)ccc1C(=O)O" . Reported solubility (mole fraction)?
0.0354

====

condition-details: in ethyl acetate, 293.15 K
experimental-readout: solubility (mole fraction)
Kindly provide the number alone.

Item under review: "Nc1cc(Cl)ccc1C(=O)O" . Reported solubility (mole fraction)?
0.0206
